Test: Oral bioavailability in ICR mouse at 5 mg/kg measured upto 24 hrs by LCMS analysis
Type: ADME, organism-based
Conditions: in vivo
Param threshold (20%) applies to bioavailability; output fulfilled when value >= threshold, not fulfilled when value < threshold.

Worked set:
molecule=C[C@@H](Nc1ccnc2cnc(N3CCS(=O)(=O)CC3)cc12)c1cccc(C(F)F)c1F discrete_label=fulfilled
molecule=COc1cc2nccc(N[C@H](C)c3cccc(C(F)F)c3F)c2cc1O[C@H]1CCN(C(C)=O)C1 discrete_label="not fulfilled"
molecule=CC(=O)N1CCC(c2cc3c(N[C@H](C)c4cccc(C(F)F)c4F)ccnc3cn2)CC1 discrete_label=fulfilled
molecule=CC(=O)N1CCN(c2cc3c(N[C@H](C)c4cccc(C(F)F)c4F)ccnc3cn2)CC1 discrete_label=fulfilled

[in] Quick check, bioavailability >= 20%? COc1cc2nccc(N[C@H](C)c3cccc(C(F)F)c3F)c2cc1N1CCS(=O)(=O)CC1
[out] not fulfilled

* * *

Target: Cytochrome P450 3A4 (Homo sapiens, UniProt P08684)
Sequence (P08684 whole entry): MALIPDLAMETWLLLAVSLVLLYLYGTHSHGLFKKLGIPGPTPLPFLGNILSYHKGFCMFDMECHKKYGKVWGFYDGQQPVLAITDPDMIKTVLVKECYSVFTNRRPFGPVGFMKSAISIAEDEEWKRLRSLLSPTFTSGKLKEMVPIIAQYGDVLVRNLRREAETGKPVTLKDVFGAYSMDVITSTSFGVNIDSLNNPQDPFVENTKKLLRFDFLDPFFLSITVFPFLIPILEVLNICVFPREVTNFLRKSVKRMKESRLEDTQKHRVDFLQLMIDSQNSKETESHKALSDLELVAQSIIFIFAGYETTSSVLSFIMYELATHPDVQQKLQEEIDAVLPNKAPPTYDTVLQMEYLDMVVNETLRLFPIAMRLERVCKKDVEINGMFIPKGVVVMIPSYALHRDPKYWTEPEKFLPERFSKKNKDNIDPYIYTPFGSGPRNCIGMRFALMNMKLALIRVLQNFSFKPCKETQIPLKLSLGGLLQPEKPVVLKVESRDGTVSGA
Test: Inhibition of CYP3A4 in human liver microsomes incubated for 5 mins by LC-MS/MS analysis
Format: ADME, Microsome
pIC50: −log10 of the molar value.
MEASURED ENDPOINT: pIC50

[in] Requested field: pIC50. Item: CC(=O)N1CCN(c2cc3c(N[C@H](C)c4cccc(C(F)F)c4F)ccnc3cn2)CC1
[out] < 4.30

* * *

Assay: Cmax in ICR mouse at 5 mg/kg, po measured upto 24 hrs by LCMS analysis
Type: ADME, organism-based
Conditions: in vivo
MEASURED ENDPOINT: Cmax (ng/mL)
// units = ng/mL; emit number, no label

molecule=CC(=O)N1CCN(c2cc3c(N[C@H](C)c4cccc(C(F)F)c4F)ccnc3cn2)CC1 result_number=714

[in] Requested field: Cmax. Item: COc1cc2nccc(N[C@H](C)c3cccc(C(F)F)c3F)c2cc1N1CCS(=O)(=O)CC1
[out] 10

[in] Requested field: Cmax. Item: CC(=O)N1CCC(c2cc3c(N[C@H](C)c4cccc(C(F)F)c4F)ccnc3cn2)CC1
[out] 424

[in] Requested field: Cmax. Item: C[C@@H](Nc1ccnc2cnc(N3CCS(=O)(=O)CC3)cc12)c1cccc(C(F)F)c1F
[out] 136

[in] Requested field: Cmax. Item: COc1cc2nccc(N[C@H](C)c3cccc(C(F)F)c3F)c2cc1O[C@H]1CCN(C(C)=O)C1
[out] 77

* * *

Target sequence: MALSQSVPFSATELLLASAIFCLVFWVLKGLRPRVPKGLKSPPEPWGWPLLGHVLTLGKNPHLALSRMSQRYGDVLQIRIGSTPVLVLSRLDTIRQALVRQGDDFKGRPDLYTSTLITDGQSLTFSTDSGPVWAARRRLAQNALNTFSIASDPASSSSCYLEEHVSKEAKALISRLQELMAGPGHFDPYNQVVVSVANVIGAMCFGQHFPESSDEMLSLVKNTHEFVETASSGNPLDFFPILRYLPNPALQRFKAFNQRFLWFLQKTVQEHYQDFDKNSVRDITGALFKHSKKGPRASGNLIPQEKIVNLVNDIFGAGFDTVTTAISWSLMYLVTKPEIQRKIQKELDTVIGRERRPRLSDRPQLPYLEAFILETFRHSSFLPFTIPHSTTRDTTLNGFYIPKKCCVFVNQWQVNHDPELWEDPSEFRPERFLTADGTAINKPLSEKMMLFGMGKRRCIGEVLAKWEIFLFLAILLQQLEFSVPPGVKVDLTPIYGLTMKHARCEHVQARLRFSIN
MEASURED ENDPOINT: pIC50
Expect pIC50 as a plain number equal to -log10 of the molar concentration.

[in] Requested field: pIC50. Item: CC(=O)N1CCN(c2cc3c(N[C@H](C)c4cccc(C(F)F)c4F)ccnc3cn2)CC1
[out] 4.76

* * *

Target: Cytochrome P450 2C19 (Homo sapiens)
Sequence (P33261 whole entry): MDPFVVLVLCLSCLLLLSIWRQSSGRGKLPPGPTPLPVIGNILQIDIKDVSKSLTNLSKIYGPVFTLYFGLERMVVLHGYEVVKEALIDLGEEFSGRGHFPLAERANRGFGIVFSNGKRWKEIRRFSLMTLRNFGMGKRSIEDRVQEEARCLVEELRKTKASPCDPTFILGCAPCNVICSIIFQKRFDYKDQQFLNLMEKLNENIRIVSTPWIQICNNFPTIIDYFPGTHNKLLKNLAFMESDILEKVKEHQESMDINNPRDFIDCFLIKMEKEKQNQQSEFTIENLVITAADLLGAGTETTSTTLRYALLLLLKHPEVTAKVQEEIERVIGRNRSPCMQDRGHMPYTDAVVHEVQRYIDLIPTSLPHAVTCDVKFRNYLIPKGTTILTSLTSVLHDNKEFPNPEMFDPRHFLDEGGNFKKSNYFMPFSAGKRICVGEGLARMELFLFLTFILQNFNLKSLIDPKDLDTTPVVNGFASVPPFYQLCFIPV
MEASURED ENDPOINT: IC50 (µM)
// units = µM; emit number, no label

[in] Report IC50 for CC(=O)N1CCN(c2cc3c(N[C@H](C)c4cccc(C(F)F)c4F)ccnc3cn2)CC1 tested on Cytochrome P450 2C19 (Homo sapiens).
[out] 3.16

* * *

Target: Voltage-gated inwardly rectifying potassium channel KCNH2 (Homo sapiens)
Sequence (Q12809 whole entry): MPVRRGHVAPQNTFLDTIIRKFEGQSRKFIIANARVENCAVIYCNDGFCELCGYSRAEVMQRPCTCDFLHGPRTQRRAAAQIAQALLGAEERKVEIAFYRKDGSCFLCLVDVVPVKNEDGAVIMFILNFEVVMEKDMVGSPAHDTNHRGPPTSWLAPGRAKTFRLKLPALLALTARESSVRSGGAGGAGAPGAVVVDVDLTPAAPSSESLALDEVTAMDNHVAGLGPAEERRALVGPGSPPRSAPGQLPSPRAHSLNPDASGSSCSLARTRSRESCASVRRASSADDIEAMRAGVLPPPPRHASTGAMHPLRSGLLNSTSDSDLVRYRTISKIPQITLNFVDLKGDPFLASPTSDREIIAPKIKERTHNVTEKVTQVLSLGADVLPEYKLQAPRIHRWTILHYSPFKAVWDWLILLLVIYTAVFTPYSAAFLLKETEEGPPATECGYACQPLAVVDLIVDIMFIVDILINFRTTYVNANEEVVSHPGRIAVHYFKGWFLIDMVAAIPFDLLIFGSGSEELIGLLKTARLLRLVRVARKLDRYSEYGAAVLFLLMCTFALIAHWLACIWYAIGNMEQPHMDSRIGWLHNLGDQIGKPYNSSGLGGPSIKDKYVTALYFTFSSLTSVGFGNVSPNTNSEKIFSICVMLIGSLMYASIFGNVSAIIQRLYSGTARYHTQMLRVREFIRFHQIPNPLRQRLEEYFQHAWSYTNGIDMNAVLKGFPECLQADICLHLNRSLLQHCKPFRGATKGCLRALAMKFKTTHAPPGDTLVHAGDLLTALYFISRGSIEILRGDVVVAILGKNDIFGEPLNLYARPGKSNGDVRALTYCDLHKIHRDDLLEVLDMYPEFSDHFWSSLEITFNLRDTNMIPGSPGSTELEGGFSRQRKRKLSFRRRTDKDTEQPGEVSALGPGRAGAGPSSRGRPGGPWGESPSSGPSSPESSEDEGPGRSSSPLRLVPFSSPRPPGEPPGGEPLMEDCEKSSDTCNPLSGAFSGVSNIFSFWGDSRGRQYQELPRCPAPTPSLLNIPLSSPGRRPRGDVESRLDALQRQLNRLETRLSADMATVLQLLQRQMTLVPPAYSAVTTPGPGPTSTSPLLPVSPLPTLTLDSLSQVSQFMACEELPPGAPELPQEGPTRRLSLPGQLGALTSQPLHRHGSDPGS
Assay: Inhibition of hERG transfected in HEK293 cells by whole-cell manual patch clamp assay
MEASURED ENDPOINT: IC50 (nM)
// units = nM; emit number, no label

[in] Requested field: IC50. Item: CC(=O)N1CCN(c2cc3c(N[C@H](C)c4cccc(C(F)F)c4F)ccnc3cn2)CC1
[out] 2450

* * *

Assay: Clearance in ICR mouse at 1 mg/kg, iv measured upto 24 hrs by LCMS analysis
Assay type: ADME, organism-based
Settings: in vivo
Param threshold (100 mL/min/kg) applies to clearance; output criterion met when value >= threshold, criterion not met when value < threshold.

Worked set:
molecule=CC(=O)N1CCC(c2cc3c(N[C@H](C)c4cccc(C(F)F)c4F)ccnc3cn2)CC1 discrete_label="criterion not met"
molecule=COc1cc2nccc(N[C@H](C)c3cccc(C(F)F)c3F)c2cc1N1CCS(=O)(=O)CC1 discrete_label="criterion met"
molecule=COc1cc2nccc(N[C@H](C)c3cccc(C(F)F)c3F)c2cc1O[C@H]1CCN(C(C)=O)C1 discrete_label="criterion met"
molecule=C[C@@H](Nc1ccnc2cnc(N3CCS(=O)(=O)CC3)cc12)c1cccc(C(F)F)c1F discrete_label="criterion not met"

Continue with the next compound.
[in] Quick check, clearance >= 100 mL/min/kg? CC(=O)N1CCN(c2cc3c(N[C@H](C)c4cccc(C(F)F)c4F)ccnc3cn2)CC1
[out] criterion not met

* * *

Target: Cytochrome P450 2C9 (Homo sapiens, UniProt P11712)
Sequence (P11712 whole entry): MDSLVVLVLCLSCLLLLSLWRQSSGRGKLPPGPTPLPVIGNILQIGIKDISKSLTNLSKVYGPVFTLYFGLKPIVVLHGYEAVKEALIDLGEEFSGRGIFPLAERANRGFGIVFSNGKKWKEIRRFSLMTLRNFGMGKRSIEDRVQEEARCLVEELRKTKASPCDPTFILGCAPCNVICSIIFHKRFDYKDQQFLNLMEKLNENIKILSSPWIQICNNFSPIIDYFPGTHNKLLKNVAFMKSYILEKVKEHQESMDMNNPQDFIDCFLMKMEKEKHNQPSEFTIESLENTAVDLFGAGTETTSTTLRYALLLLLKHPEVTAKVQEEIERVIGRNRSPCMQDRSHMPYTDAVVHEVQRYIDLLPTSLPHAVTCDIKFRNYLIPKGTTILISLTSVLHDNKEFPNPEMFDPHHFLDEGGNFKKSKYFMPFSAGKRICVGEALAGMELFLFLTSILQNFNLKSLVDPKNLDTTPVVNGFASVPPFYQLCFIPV
MEASURED ENDPOINT: pIC50
Expect pIC50 as a plain number equal to -log10 of the molar concentration.

[in] Requested field: pIC50. Item: CC(=O)N1CCN(c2cc3c(N[C@H](C)c4cccc(C(F)F)c4F)ccnc3cn2)CC1
[out] 5.24

* * *

Assay: Plasma protein binding in human assessed as unbound fraction incubated for 4 hrs by LC-MS/MS analysis
Assay type: ADME, cell-free
MEASURED ENDPOINT: fraction unbound at 4 h
// print number alone

[in] Requested field: fraction unbound at 4 h. Item: CC(=O)N1CCN(c2cc3c(N[C@H](C)c4cccc(C(F)F)c4F)ccnc3cn2)CC1
[out] 0.0481

* * *

Target: SOS1-KRAS (Homo sapiens, UniProt Q07889)
Sequence (Q07889 whole entry, looked up, stated change not applied): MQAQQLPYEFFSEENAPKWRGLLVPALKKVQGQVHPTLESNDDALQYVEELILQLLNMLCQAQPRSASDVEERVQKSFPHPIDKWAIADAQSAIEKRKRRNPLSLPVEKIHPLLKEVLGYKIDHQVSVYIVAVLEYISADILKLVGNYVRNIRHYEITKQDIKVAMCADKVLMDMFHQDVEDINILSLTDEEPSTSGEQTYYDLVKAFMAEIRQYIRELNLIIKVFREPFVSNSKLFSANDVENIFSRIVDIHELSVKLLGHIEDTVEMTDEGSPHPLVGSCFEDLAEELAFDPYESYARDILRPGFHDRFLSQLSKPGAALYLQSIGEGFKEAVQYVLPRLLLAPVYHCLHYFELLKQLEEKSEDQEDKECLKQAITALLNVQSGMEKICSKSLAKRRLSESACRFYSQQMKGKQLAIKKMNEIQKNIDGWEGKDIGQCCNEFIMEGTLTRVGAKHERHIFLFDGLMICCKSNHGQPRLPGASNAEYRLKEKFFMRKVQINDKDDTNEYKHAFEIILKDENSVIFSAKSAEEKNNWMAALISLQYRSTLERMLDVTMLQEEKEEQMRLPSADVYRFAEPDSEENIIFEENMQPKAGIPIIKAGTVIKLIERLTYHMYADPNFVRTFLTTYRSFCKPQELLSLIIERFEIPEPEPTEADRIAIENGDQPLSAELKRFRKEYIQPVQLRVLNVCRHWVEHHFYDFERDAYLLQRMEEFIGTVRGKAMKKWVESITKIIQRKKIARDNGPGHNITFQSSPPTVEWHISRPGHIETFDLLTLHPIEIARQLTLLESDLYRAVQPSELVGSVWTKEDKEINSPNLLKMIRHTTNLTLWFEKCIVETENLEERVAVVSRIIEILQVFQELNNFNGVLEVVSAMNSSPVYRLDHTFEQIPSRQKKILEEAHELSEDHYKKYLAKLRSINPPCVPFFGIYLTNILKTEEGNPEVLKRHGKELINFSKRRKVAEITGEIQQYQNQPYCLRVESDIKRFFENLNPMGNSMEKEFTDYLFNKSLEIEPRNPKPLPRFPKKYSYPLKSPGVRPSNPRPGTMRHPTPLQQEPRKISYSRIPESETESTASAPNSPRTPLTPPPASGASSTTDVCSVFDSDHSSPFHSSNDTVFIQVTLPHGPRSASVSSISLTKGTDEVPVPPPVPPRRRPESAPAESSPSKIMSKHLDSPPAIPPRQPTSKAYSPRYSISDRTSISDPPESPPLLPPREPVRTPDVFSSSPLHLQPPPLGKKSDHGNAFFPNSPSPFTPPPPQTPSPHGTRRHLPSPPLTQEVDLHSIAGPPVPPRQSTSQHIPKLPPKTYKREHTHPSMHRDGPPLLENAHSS
Assay: Inhibition of SOS1/KRAS G12C mutant (unknown origin) protein-protein interaction incubated for 2 hrs by HTRF analysis
Type: protein-complex assay
pIC50: −log10 of the molar value.
Param threshold (8) applies to pIC50; output Fulfilled when value >= threshold, Not fulfilled when value < threshold.

molecule=COc1cc2nccc(N[C@H](C)c3cccc(C(F)F)c3F)c2cc1O[C@H]1CCN(C(C)=O)C1 discrete_label=Fulfilled

Continue with the next molecule.
[in] Quick check, pIC50 >= 8? CC(=O)N1CCC(c2cc3c(N[C@H](C)c4cccc(C(F)F)c4F)ccnc3cn2)C1 (some centres undefined)
[out] Not fulfilled

* * *

Target: SOS1-KRAS (Homo sapiens, UniProt Q07889)
Experiment: Inhibition of SOS1/KRAS G12C mutant (unknown origin) protein-protein interaction incubated for 2 hrs by HTRF analysis
# pIC50 listing for each entry below
Expect pIC50 as a plain number equal to -log10 of the molar concentration.

Below: 10 molecules and their reported pIC50.
molecule=C[C@@H](Nc1ccnc2cnc(N3CCN(S(C)(=O)=O)CC3)cc12)c1cccc(C(F)F)c1F measured_endpoint=pIC50 result_number=7.89
molecule=COc1cc2nccc(N[C@H](C)c3cccc(C(F)F)c3F)c2cc1OC1CCNCC1 measured_endpoint=pIC50 result_number=7.89
molecule=COc1cc2nccc(N[C@H](C)c3cccc(C(F)F)c3F)c2cc1C1CC1 measured_endpoint=pIC50 result_number=7.64
molecule=COc1cc2nccc(N[C@H](C)c3cccc(C(F)F)c3F)c2cc1N1CCN(C(C)=O)CC1 measured_endpoint=pIC50 result_number=8.06
molecule=COc1cc2nccc(N[C@H](C)c3cccc(C(F)F)c3F)c2cc1O[C@H]1CCNC1 measured_endpoint=pIC50 result_number=8.22
molecule=C[C@@H](Nc1ccnc2cnc(N3CCS(=O)(=O)CC3)cc12)c1cccc(C(F)F)c1F measured_endpoint=pIC50 result_number=8.28
molecule=CC(=O)N1CCN(c2cc3c(N[C@H](C)c4cccc(C(F)F)c4F)ccnc3cn2)CC1 measured_endpoint=pIC50 result_number=8.24
molecule=C[C@@H](Nc1ccnc2cnc(N3CCOCC3)cc12)c1cccc(C(F)F)c1F measured_endpoint=pIC50 result_number=8.15
molecule=COc1cc2nccc(N[C@H](C)c3cccc(C(F)F)c3F)c2cc1O[C@H]1CCN(C(=O)C2CCOCC2)C1 measured_endpoint=pIC50 result_number=7.89
molecule=COc1cc2nccc(N[C@H](C)c3cccc(C(F)F)c3F)c2cc1C1CCN(C(C)=O)CC1 measured_endpoint=pIC50 result_number=7.96

[in] Requested field: pIC50. Item: COc1cc2nccc(N[C@H](C)c3cccc(C(F)F)c3F)c2cc1O[C@H]1CCN(C(=O)C2CC2)C1
[out] 8.00

[in] Requested field: pIC50. Item: COc1cc2nccc(N[C@H](C)c3cccc(C(F)F)c3F)c2cc1O[C@H]1CCN(C)C1
[out] 7.82

[in] Requested field: pIC50. Item: CC(=O)NC1CCN(c2cc3c(N[C@H](C)c4cccc(C(F)F)c4F)ccnc3cn2)CC1
[out] 7.92

[in] Requested field: pIC50. Item: COc1cc2nccc(N[C@H](C)c3cccc(C(F)F)c3F)c2cc1OC
[out] 7.96

Values compiled from ChEMBL document CHEMBL5532737.
